Where do the numbers come from? From patent US6613772B1.

Observable: melting point (°C)

COc1cc2c(NCCN(C(C)C)C(C)C)nc(-c3ccc(Cl)cc3)nc2c(OC)c1OC.Cl : 189
COC(=O)CNc1nc(-c2ccc(Cl)cc2)nc2cc(OC)c(OC)cc12 : 196
COc1cc2c(NCCCN3CCOCC3)nc(-c3ccc(Cl)cc3)nc2c(OC)c1OC.Cl : 190
COc1cc2c(N3CCNCC3)nc(-c3ccc(Cl)cc3)nc2c(OC)c1OC : 156
